# Tested on: PRXF 22Rv1
# Protocol Description: 2D proliferation assay (CellTiter-Blue)
# Format: cell-based
# Applied Conditions: Homo sapiens, read-out: Relative ritonavir IC50; PRXF 22Rv1; 2D proliferation assay
Measured Metric: pIC50
To interpret pIC50, take it as minus log10 of a concentration measured in moles per litre.

Give the measured pIC50 of `CC(C)c1nc(CN(C)C(=O)N[C@H](C(=O)N[C@@H](Cc2ccccc2)C[C@H](O)[C@H](Cc2ccccc2)NC(=O)OCc2cncs2)C(C)C)cs1` .
4.53

---

# Protocol Description: Bidirectional permeability assay across Caco-2 monolayers
# Assay type: in vitro ADME, human
# Applied Conditions: human, Caco-2, docetaxel 10 μM; incubation 60 min; inhibitor where named: valspodar 10 μM or ritonavir 50 μM; read-out: ER
Measured Metric: efflux ratio at 60 min, 10 μM
Lab note: record just the number, no unit beside it.

Value lookup for efflux ratio at 60 min, 10 μM; key = CC(=O)O[C@@]12CO[C@@H]1C[C@H](O)[C@@]1(C)C(=O)[C@H](O)C3=C(C)[C@@H](OC(=O)[C@H](O)[C@@H](NC(=O)OC(C)(C)C)c4ccccc4)C[C@@](O)([C@@H](OC(=O)c4ccccc4)[C@H]21)C3(C)C [Docetaxel]
31.8

---

# Protocol Description: Bidirectional permeability assay across Caco-2 monolayers
# Assay type: in vitro ADME, human
# Applied Conditions: human, Caco-2, docetaxel 10 μM; incubation 120 min; inhibitor where named: valspodar 10 μM or ritonavir 50 μM; read-out: ER
Measured Metric: efflux ratio at 120 min, 10 μM
Returns: the value as a bare number; no unit string appended.

Fill blank: measured efflux ratio at 120 min, 10 μM of the compound `CC(=O)O[C@@]12CO[C@@H]1C[C@H](O)[C@@]1(C)C(=O)[C@H](O)C3=C(C)[C@@H](OC(=O)[C@H](O)[C@@H](NC(=O)OC(C)(C)C)c4ccccc4)C[C@@](O)([C@@H](OC(=O)c4ccccc4)[C@H]21)C3(C)C` is ____.
32.7

---

# Protocol Description: Bidirectional permeability assay across Caco-2 monolayers
# Assay type: in vitro ADME, human
# Applied Conditions: human, Caco-2
# Description: Samples were analyzed using LC-MS/MS. The medium was changed 24 h before the experiment. […] The bioanalysis of docetaxel was performed with the . The following equation was used to calculate apparent permeability coefficient (Papp): dQ: amount of transporter test drug in pmol; dT: incubation time in seconds; A: surface of porous membrane in cm^2 (standard: 0.7); C0: initial concentration of test agent in the donor chamber in pmol/cm^3.
Measured Metric: Papp B→A at 60 min, 5 μM (×10⁻⁶ cm/s)
The response must be a number in ×10⁻⁶ cm/s with no trailing unit.

What value of Papp B→A at 60 min, 5 μM has been recorded for this entry: `CC(=O)O[C@@]12CO[C@@H]1C[C@H](O)[C@@]1(C)C(=O)[C@H](O)C3=C(C)[C@@H](OC(=O)[C@H](O)[C@@H](NC(=O)OC(C)(C)C)c4ccccc4)C[C@@](O)([C@@H](OC(=O)c4ccccc4)[C@H]21)C3(C)C`
20.3

---

# Protocol Description: Bidirectional permeability assay across Caco-2 monolayers
# Assay type: in vitro ADME, human
# Applied Conditions: human, Caco-2
Measured Metric: Papp A→B at 120 min, 5 μM (×10⁻⁶ cm/s)
State the answer as a number, implicitly in ×10⁻⁶ cm/s.

# query: Papp A→B at 120 min, 5 μM of entry CC(=O)O[C@@]12CO[C@@H]1C[C@H](O)[C@@]1(C)C(=O)[C@H](O)C3=C(C)[C@@H](OC(=O)[C@H](O)[C@@H](NC(=O)OC(C)(C)C)c4ccccc4)C[C@@](O)([C@@H](OC(=O)c4ccccc4)[C@H]21)C3(C)C [Docetaxel]
0.81
